test: Compound tissue distribution experiment in rats (metabolites 2FM-UR, 2FM-UMP, 2FM-UTP by LC-MS/MS); assay type: in vivo, Sprague Dawley rats; conditions: rat, 30 mg/kg intragastric, within 24 h, plasma
MEASURED ENDPOINT: Exposure amount of 2FM-UMP in plasma (AUC0-t) (ng·h/g)
Give bare numbers, in ng·h/g.

CC(C)OC(=O)[C@H](C)N[P@](=O)(OC[C@H]1O[C@@H](n2ccc(=O)[nH]c2=O)[C@](C)(F)[C@@H]1O)Oc1ccccc1 [SFB, sofosbuvir, reference compound]: 5680
C[C@@]1(F)[C@H](O)[C@@H](COP2(=O)OCC[C@H](c3cc(F)cc(Cl)c3)O2)O[C@H]1n1ccc(=O)[nH]c1=O (stereo partly shown): 439
C[C@@]1(F)[C@H](O)[C@@H](COP2(=O)OCC[C@H](c3cc(Cl)ccc3F)O2)O[C@H]1n1ccc(=O)[nH]c1=O (stereo partly shown): 1451

Proceed to the following item.
Return Exposure amount of 2FM-UMP in plasma (AUC0-t) for the following compound: C[C@@]1(F)[C@H](O)[C@@H](COP2(=O)OCC[C@H](c3cc(Cl)cc(Cl)c3)O2)O[C@H]1n1ccc(=O)[nH]c1=O (stereo partly shown)
105

----------
experiment: Compound tissue distribution experiment in rats (metabolites 2FM-UR, 2FM-UMP, 2FM-UTP by LC-MS/MS); format: in vivo, Sprague Dawley rats; conditions: rat, 30 mg/kg intragastric, within 24 h, liver
Can you tell me Exposure amount of 2FM-UMP in liver (AUC0-t) for the items I'm about to list?
Answers are plain numbers, in ng·h/g.

Example entries and their recorded answers appear below.
CC(C)OC(=O)[C@H](C)N[P@](=O)(OC[C@H]1O[C@@H](n2ccc(=O)[nH]c2=O)[C@](C)(F)[C@@H]1O)Oc1ccccc1 [SFB, sofosbuvir, reference compound]: 27128
C[C@@]1(F)[C@H](O)[C@@H](COP2(=O)OCC[C@H](c3cc(F)cc(Cl)c3)O2)O[C@H]1n1ccc(=O)[nH]c1=O (stereo partly shown) [PA2020]: 102822
C[C@@]1(F)[C@H](O)[C@@H](COP2(=O)OCC[C@H](c3cc(Cl)cc(Cl)c3)O2)O[C@H]1n1ccc(=O)[nH]c1=O (stereo partly shown) [PA2024]: 65242

Please examine the following record next.
Could you please provide reported Exposure amount of 2FM-UMP in liver (AUC0-t) for C[C@@]1(F)[C@H](O)[C@@H](COP2(=O)OCC[C@H](c3cc(Cl)ccc3F)O2)O[C@H]1n1ccc(=O)[nH]c1=O (stereo partly shown) [PA2029] ? Thanks!
110339

----------
Would you kindly list Exposure amount of 2FM-UTP in liver (AUC0-t) for each of these molecules?
test: Compound tissue distribution experiment in rats (metabolites 2FM-UR, 2FM-UMP, 2FM-UTP by LC-MS/MS); format: in vivo, Sprague Dawley rats; conditions: rat, 30 mg/kg intragastric, within 24 h, liver
Give bare numbers, in ng·h/g.

C[C@@]1(F)[C@H](O)[C@@H](COP2(=O)OCC[C@H](c3cc(Cl)cc(Cl)c3)O2)O[C@H]1n1ccc(=O)[nH]c1=O (stereo partly shown): 9591
C[C@@]1(F)[C@H](O)[C@@H](COP2(=O)OCC[C@H](c3cc(F)cc(Cl)c3)O2)O[C@H]1n1ccc(=O)[nH]c1=O (stereo partly shown): 26682
CC(C)OC(=O)[C@H](C)N[P@](=O)(OC[C@H]1O[C@@H](n2ccc(=O)[nH]c2=O)[C@](C)(F)[C@@H]1O)Oc1ccccc1 [SFB, sofosbuvir, reference compound]: 2691

Attention now shifts to the item below.
Note Exposure amount of 2FM-UTP in liver (AUC0-t) for the molecule shown: C[C@@]1(F)[C@H](O)[C@@H](COP2(=O)OCC[C@H](c3cc(Cl)ccc3F)O2)O[C@H]1n1ccc(=O)[nH]c1=O (stereo partly shown)
11820
